assay: Bulk density (loose and tapped) of CI-1027 lots; conditions: per lot
readout-label: Bulk Density Loose (g/mL)
Give the number; g/mL is assumed, so skip it.

Answered examples (3):
CC(C)(CCCCOCCCCC(C)(C)C(=O)[O-])C(=O)[O-].[Ca+2] [CD-3082] ... 0.234
CC(C)(CCCCOCCCCC(C)(C)C(=O)[O-])C(=O)[O-].[Ca+2] [CD-3103] ... 0.343
CC(C)(CCCCOCCCCC(C)(C)C(=O)[O-])C(=O)[O-].[Ca+2] [CD-3243] ... 0.235

With those in mind, consider the next compound.
### Prompt What value of measured Bulk Density Loose is listed for CC(C)(CCCCOCCCCC(C)(C)C(=O)[O-])C(=O)[O-].[Ca+2] [CD-3111] ?
### Response 0.218

These data points were gathered from patent US6861555B2.
